System: mGrn mRNA
Assay: mGrn mRNA qPCR in Neuro2a cells transfected with ASOs
Type: cell-based, mouse
Conditions: Table 15; Neuro2a, 40 nM, transfection
Experimental: 57 ASOs targeting the Grn promoter (− strand) were screened in Neuro2a cells. Neuro2a cells were transfected with 100 nM of each of the ASOs listed in Table 14 and cells were harvested 48 hours later for Grn mRNA quantification using qPCR. Housekeeping genes for normalization were Gapdh and Ppia. […] CO-3544 was modified to include PO/PS bonds and the efficacy in upregulating mGrn mRNA was determined. […]
Oligonucleotides are written 5' to 3', each unit as a sugar letter and its base; * is a phosphorothioate linkage, no mark a phosphodiester; rarer units and linkages stand in square brackets, end groups in braces. Plain capitals give the bases only. e = 2'-O-(2-methoxyethyl) (MOE); l = locked nucleic acid (LNA); [5mC] = 5-methylcytosine
test readout: 40 nM FC (mGrn mRNA) (FC)
Please state the figure in FC; there is no need to write the unit.

- substance: "CO-5301: CO-3544 modified to include PO/PS bonds (antisense lG*lT*eT*l[5mC]*lT*e[5mC]*l[5mC]*e[5mC]*lT*eA*lG*e[5mC]*lT*eG*lT*eG*lT*eA*lG*lT)"
  unit abbreviation: "FC"
  40 nM FC (mGrn mRNA): 0.9
- substance: "CO-5297: CO-3544 modified to include PO/PS bonds (antisense eG*eT*eTe[5mC]eTe[5mC]e[5mC]e[5mC]eTeAeGe[5mC]eTeG*eT*eG*eT*eA*eG*eT)"
  unit abbreviation: "FC"
  40 nM FC (mGrn mRNA): 1.0
- substance: "CO-5290: CO-3544 modified to include PO/PS bonds (antisense eG*eT*eTe[5mC]eTe[5mC]e[5mC]e[5mC]eTeAeGe[5mC]eTeGeTeGeT*eA*eG*eT)"
  unit abbreviation: "FC"
  40 nM FC (mGrn mRNA): 1.1
- substance: "CO-4082: ASO based on parent ASOs CO-3544 and CO-3595, different modifications and base walking (antisense eG*eT*eT*e[5mC]*eT*l[5mC]*e[5mC]*e[5mC]*lT*eA*eG*l[5mC]*eT*eG*lT*eG*eT*eA*eG*eT)"
  unit abbreviation: "FC"
  40 nM FC (mGrn mRNA): 1.4

Q: Item: CO-5296: CO-3544 modified to include PO/PS bonds (antisense eG*eT*eTe[5mC]eTe[5mC]e[5mC]e[5mC]eTeAeGe[5mC]eTeGeTeG*eT*eA*eG*eT) Test system: mGrn mRNA Read-out: 40 nM FC (mGrn mRNA) Value: ?
Ans: 1.1

---

tested on: GRN mRNA; experiment: GRN mRNA qPCR in SK-N-AS cells transfected with ASOs; format: cell-based, human; conditions: Table 12; SK-N-AS, 60 nM; normalized to CO-1589
Oligonucleotides are written 5' to 3', each unit as a sugar letter and its base; * is a phosphorothioate linkage, no mark a phosphodiester; rarer units and linkages stand in square brackets, end groups in braces. Plain capitals give the bases only. e = 2'-O-(2-methoxyethyl) (MOE); l = locked nucleic acid (LNA); [5mC] = 5-methylcytosine; d = 2'-deoxy (DNA)
test readout: 60 nM FC (GRN mRNA)
# do not omit the unit; it follows the number

Field: example entries. Status: answers known.
- substance: "CO-6394: ASO based on parent ASO CO-3462 (antisense eT*eA*lG*eG*eA*lG*eA*eA*lT*e[5mC]*eG*l[5mC]*eT*eT*lT*eG*eG*lG*eA*eG)"
  tested target: "GRN mRNA"
  60 nM FC (GRN mRNA): "0.9 FC"
- substance: "CO-6408: ASO based on parent ASO CO-3462 (antisense eT*eA*eG*eGeAeGeA*eA*eT*e[5mC]*eG*e[5mC]*eT*eTeTeGeG*eG*eA*eG)"
  tested target: "GRN mRNA"
  60 nM FC (GRN mRNA): "1.1 FC"
- substance: "CO-6387: ASO based on parent ASO CO-3462 (antisense eT*eA*eG*eG*eA*dG*dA*dA*eT*d[5mC]*dG*e[5mC]*dT*dT*dT*eG*eG*eG*eA*eG)"
  tested target: "GRN mRNA"
  60 nM FC (GRN mRNA): "1.0 FC"
- substance: "CO-6389: ASO based on parent ASO CO-3462 (antisense eT*eA*eG*lG*eA*dG*dA*lA*dT*d[5mC]*dG*l[5mC]*dT*dT*dT*lG*eG*eG*eA*eG)"
  tested target: "GRN mRNA"
  60 nM FC (GRN mRNA): "1.0 FC"
- substance: "CO-6407: ASO based on parent ASO CO-3462 (antisense TAGGAGAATCGCTTTGGGAG; 2'-MOE, 5-methylC, mixed PO/PS; listed as RNA; modified_base 1..3: mod_base = OTHER; note = Phosphorothioate linkage; modified_base 6..15: mod_base = OTHER; modified_base 1..9: mod_base = OTHER; modified_base 18..20: mod_bas)"
  tested target: "GRN mRNA"
  60 nM FC (GRN mRNA): "1.2 FC"
- substance: "CO-6393: ASO based on parent ASO CO-3462 (antisense eT*eA*lG*eG*lA*eG*lA*eA*lT*e[5mC]*lG*e[5mC]*lT*eT*lT*eG*lG*eG*eA*eG)"
  tested target: "GRN mRNA"
  60 nM FC (GRN mRNA): "0.7 FC"
- substance: "CO-6519: ASO based on parent ASO CO-3462 (antisense eT*eA*eG*eG*eA*eGeAeAeTe[5mC]eGe[5mC]eTeTeTeGeGeG*eA*eG)"
  tested target: "GRN mRNA"
  60 nM FC (GRN mRNA): "1.0 FC"
- substance: "CO-6400: ASO based on parent ASO CO-3462 (antisense eG*eT*eA*eG*eG*eA*eG*eA*eA*eT*e[5mC]*eG*e[5mC]*eT*eT*eT*eG*eG*eG*eA*eG*e[5mC])"
  tested target: "GRN mRNA"
  60 nM FC (GRN mRNA): "1.3 FC"
- substance: "CO-6409: ASO based on parent ASO CO-3462 (antisense eT*eA*eGeG*eA*eGeA*eA*eTe[5mC]*eG*e[5mC]eT*eT*eTeG*eG*eGeA*eG)"
  tested target: "GRN mRNA"
  60 nM FC (GRN mRNA): "1.1 FC"
- substance: "CO-6386: ASO based on parent ASO CO-3462 (antisense eG*e[5mC]*eG*eA*eG*e[5mC]*e[5mC]*eA*eG*e[5mC]*eT*e[5mC]*eA*eG*eT*eA*eG*e[5mC]*eT*e[5mC])"
  tested target: "GRN mRNA"
  60 nM FC (GRN mRNA): "0.9 FC"

Q: Item: CO-6390: ASO based on parent ASO CO-3462 (antisense eT*eA*eG*eG*lA*dG*dA*dA*lT*d[5mC]*dG*d[5mC]*lT*dT*dT*eG*lG*eG*eA*eG) Test system: GRN mRNA Read-out: 60 nM FC (GRN mRNA) Value: ?
Ans: 1.3 FC

Q: Item: CO-6518: ASO based on parent ASO CO-3462 (antisense eT*eA*eG*eGeAeGeAeAeTe[5mC]eGe[5mC]eTeTeTeGeGeG*eA*eG) Test system: GRN mRNA Read-out: 60 nM FC (GRN mRNA) Value: ?
Ans: 1.3 FC
